B1: TPR 5TU (parent)
chain: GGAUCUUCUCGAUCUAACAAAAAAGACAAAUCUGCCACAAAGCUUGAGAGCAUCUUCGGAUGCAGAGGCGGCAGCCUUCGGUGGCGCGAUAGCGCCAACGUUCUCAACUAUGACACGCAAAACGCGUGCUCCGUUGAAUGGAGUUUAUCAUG

Variants of: B1
Assay: polymerase ribozyme fitness, log enrichment relative to wild type (log ratio); higher = more active; in vitro selection for triplet polymerase activity
This sample holds only a part of the variants without activity.
Below, each entry is listed alongside its reported polymerase ribozyme fitness (log ratio).

Look over these answered cases.
>>> df
    variant_description                          outcome_measure  meas_value
0  C14G A89U C99A A107C  polymerase ribozyme fitness (log ratio)      ≤ -4.2
1   G50U U53G C69G G94A  polymerase ribozyme fitness (log ratio)      ≤ -4.2

Quick check: polymerase ribozyme fitness (log ratio) of C18A G70A G84U U130G ?
≤ -4.2

Quick check: polymerase ribozyme fitness (log ratio) of U13C A40C G48C G50C G83U ?
≤ -4.2

Quick check: polymerase ribozyme fitness (log ratio) of C38U U78C C95U ?
-0.556

Quick check: polymerase ribozyme fitness (log ratio) of A19G C85A ?
-2.09

Quick check: polymerase ribozyme fitness (log ratio) of U31A U55A A97U U145G ?
-0.219

Quick check: polymerase ribozyme fitness (log ratio) of A17G U53A ?
-0.401

Quick check: polymerase ribozyme fitness (log ratio) of U6C G83C A91C U145C ?
≤ -4.2

Quick check: polymerase ribozyme fitness (log ratio) of A26U U56A ?
-2.17

Quick check: polymerase ribozyme fitness (log ratio) of A16C U55A A142G A150G ?
-3.06

Quick check: polymerase ribozyme fitness (log ratio) of A24G A37U A115G U130C U135A A150U ?
≤ -4.2

Quick check: polymerase ribozyme fitness (log ratio) of G83C C116A A121C ?
0.158

Quick check: polymerase ribozyme fitness (log ratio) of C57G C75U C108A A110G ?
≤ -4.2
